experiment: Fluorimetry: absorption and emission spectra, Stokes shift, molar absorption coefficient, quantum efficiency; assay type: physicochemical; conditions: coumarin-343 as reference, DMSO
measurement.name: ε (molar absorption coefficient) (L/cm/mol)
Give the value in L/cm/mol but do not write L/cm/mol after it.

Name the recorded ε (molar absorption coefficient) for COc1cc2oc(=O)c(C(=O)O)cc2cc1-n1cc(-c2ccc(-c3ccc(N)cc3)cc2)nn1 .
21908.6

Name the recorded ε (molar absorption coefficient) for Nc1ccc(-c2ccc(-c3cn(-c4ccc5oc(=O)c(C(=O)O)cc5c4)nn3)cc2)cc1 .
36944.8

Name the recorded ε (molar absorption coefficient) for CCOC(=O)c1cc2cc(-n3cc(-c4ccc(-c5ccc(N)cc5)cc4)nn3)ccc2oc1=O .
48740.9

Name the recorded ε (molar absorption coefficient) for CCOC(=O)c1cc(C(=O)OCC)c2cc(-c3ccc(-c4ccccc4)cc3)ccc2n1 .
25747.1
